# Tested on: NALM-16
# measurement_protocol: selective drug sensitivity score (sDSS, relative to normal bone marrow) (sDSS (score)); higher = more potent and effective on the cell line relative to normal bone marrow cells;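 also: ALL cell lines in 384-well plates, five doses spanning 10,000-fold, each plate scaled between vehicle and 100 µmol/L benzalkonium chloride controls, sDSS an adapted area-under-curve metric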
# measurement_conditions: 72 h
Each entry gets no (0) if its selective drug sensitivity score stays under -1, and yes (1) if its selective drug sensitivity score is -1 or above.

| compound | qualitative_label |
| --- | --- |
| CS(=O)(=O)CCNCc1ccc(-c2ccc3ncnc(Nc4ccc(OCc5cccc(F)c5)c(Cl)c4)c3c2)o1 [Lapatinib] (top concentration 1000 nM) | yes (1) |
| CCc1c2c(nc3ccc(O)cc13)-c1cc3c(c(=O)n1C2)COC(=O)[C@]3(O)CC [SN-38] (top concentration 10000 nM) | yes (1) |
| CCN(CC)CCCC(C)Nc1ccnc2cc(Cl)ccc12 (stereo unspecified) [Chloroquine] (top concentration 100000 nM) | no (0) |
| Cc1cc(C(C)Nc2ccccc2)c2nc(N3CCOCC3)cc(=O)n2c1 (stereo unspecified) [TGX-221] (top concentration 10000 nM) | no (0) |
| CC(C)NC(=O)COc1cccc(-c2nc(Nc3ccc4[nH]ncc4c3)c3ccccc3n2)c1 [KD025] (top concentration 5000 nM) | no (0) |

---

# System: COG-LL-319h
# measurement_protocol: selective drug sensitivity score (sDSS, relative to normal bone marrow) (sDSS (score)); higher = more potent and effective on the cell line relative to normal bone marrow cells
# measurement_conditions: 72 h
# selective drug sensitivity score annotations

| compound | selective drug sensitivity score |
| --- | --- |
| COc1cc2c(N3CCN(C(=O)Nc4ccc(OC(C)C)cc4)CC3)ncnc2cc1OCCCN1CCCCC1 [Tandutinib] (top concentration 1000 nM) | 0 |
| COc1cc(Br)c(Nc2nc(-c3c(C)nc4ncccn34)cs2)c(Br)c1 [PTC-209] (top concentration 10000 nM) | 4.12 |
| CC/C(=C(\c1ccccc1)c1ccc(OCCN(C)C)cc1)c1ccccc1 [Tamoxifen] (top concentration 10000 nM) | 5.42 |

---

# Tested on: COG-LL-402h
# measurement_protocol: selective drug sensitivity score (sDSS, relative to normal bone marrow) (sDSS (score)); higher = more potent and effective on the cell line relative to normal bone marrow cells
# measurement_conditions: 72 h
Catalogue of molecules with associated selective drug sensitivity score
measured_property: selective drug sensitivity score

| molecule | numeric_readout |
| --- | --- |
| C[C@]12CC[C@H](O)CC1=CC[C@@H]1[C@@H]2CC[C@]2(C)C(c3cccnc3)=CC[C@@H]12 [Abiraterone] (top concentration 5000 nM) | -0.12 |
| CC(C)(C)c1cnc(CSc2cnc(NC(=O)C3CCNCC3)s2)o1 [SNS-032] (top concentration 10000 nM) | 3.06 |
| COc1cc(NS(C)(=O)=O)ccc1Nc1c2ccccc2nc2ccccc12 [Amsacrine] (top concentration 10000 nM) | 16.8 |

---

# System: PEER
# measurement_protocol: selective drug sensitivity score (sDSS, relative to normal bone marrow) (sDSS (score)); higher = more potent and effective on the cell line relative to normal bone marrow cells
# measurement_conditions: 72 h

| molecule | selective drug sensitivity score |
| --- | --- |
| Cc1cc2c(C(=O)NC[C@H](C)c3ccccc3)c(O)c(O)cc2c(O)c1-c1c(C)cc2c(C(=O)NC[C@H](C)c3ccccc3)c(O)c(O)cc2c1O [Sabutoclax] (top concentration 25000 nM) | 14.5 |
| Cc1noc2c1-c1ccccc1C(c1ccc(Cl)cc1)=N[C@H]2CC(N)=O [CPI-0610] (top concentration 10000 nM) | -1.9 |
| Oc1ccc2c(c1)CC[C@H](c1ccccc1)[C@@H]2c1ccc(OCCN2CCCC2)cc1 [Lasofoxifene] (top concentration 1000 nM) | -1.28 |
| CNC(=O)CN1CCC(Oc2cc3c(Nc4cccc(Cl)c4F)ncnc3cc2OC)CC1 [Sapitinib] (top concentration 1000 nM) | 0 |
| Oc1nc(-c2ccc(C(F)(F)F)cc2)nc2c1CSCC2 [XAV939] (top concentration 10000 nM) | 0.96 |
| Cn1ncc(Cl)c1-c1cc(C(=O)N[C@H](CN)Cc2cccc(F)c2)sc1Cl [Afuresertib] (top concentration 1000 nM) | -1.34 |

---

# System: DND-41
# measurement_protocol: selective drug sensitivity score (sDSS, relative to normal bone marrow) (sDSS (score)); higher = more potent and effective on the cell line relative to normal bone marrow cells
# measurement_conditions: 72 h
# reported selective drug sensitivity score; entries follow

| molecule | selective drug sensitivity score |
| --- | --- |
| COCCNCc1ccc(-c2cc3nccc(Oc4ccc(NC(=S)NC(=O)Cc5ccc(F)cc5)cc4F)c3s2)nc1 [Glesatinib] (top concentration 2500 nM) | 0.44 |
| CCN(CC)CCN(Cc1ccc(-c2ccc(C(F)(F)F)cc2)cc1)C(=O)Cn1c(SCc2ccc(F)cc2)nc(=O)c2c1CCC2 [Darapladib] (top concentration 1000 nM) | -0.72 |
| COc1ccccc1S(=O)(=O)Nc1ccc2c(c1)CN(C)C(=O)N2 [PFI-1] (top concentration 30000 nM) | 2.3 |

---

Examples of compounds with documented selective drug sensitivity score follow.
# System: 697
# measurement_protocol: selective drug sensitivity score (sDSS, relative to normal bone marrow) (sDSS (score)); higher = more potent and effective on the cell line relative to normal bone marrow cells
# measurement_conditions: 72 h
measured_property: selective drug sensitivity score

| compound | measured_property | numeric_readout |
| --- | --- | --- |
| O=c1[nH]c(C2CCCN2)nc2c1oc1ccc(Cl)cc12 (configuration not stated) (top concentration 10000 nM) | selective drug sensitivity score | 6.2 |
| COc1ccc(Cn2ccc3ccc(C(=O)NO)cc32)cc1 (top concentration 10000 nM) | selective drug sensitivity score | 4.34 |
| CNC(=O)c1cccc2cc(Oc3ccnc4cc(OCC5(N)CC5)c(OC)cc34)ccc12 [Lucitanib] (top concentration 10000 nM) | selective drug sensitivity score | 5.48 |
| CN(C)C[C@@H]1CCn2cc(c3ccccc32)C2=C(C(=O)NC2=O)c2cn(c3ccccc23)CCO1 [Ruboxistaurin] (top concentration 10000 nM) | selective drug sensitivity score | 2.36 |
| COc1cc2c(Oc3ccc(NC(=O)C4(C(=O)Nc5ccc(F)cc5)CC4)cc3F)ccnc2cc1OCCCN1CCOCC1 [Foretinib] (top concentration 1000 nM) | selective drug sensitivity score | 2.24 |
| CCC(C)(C)C(=O)O[C@H]1C[C@@H](C)C=C2C=C[C@H](C)[C@H](CC[C@@H]3C[C@@H](O)CC(=O)O3)[C@H]21 [Simvastatin] (top concentration 10000 nM) | selective drug sensitivity score | -0.22 |
| CC/C(=C(\c1ccccc1)c1ccc(OCCN(C)C)cc1)c1ccccc1 [Tamoxifen] (top concentration 10000 nM) | selective drug sensitivity score | 1.62 |
| O=C(Nc1cccc(Nc2ncc(Br)c(NCCc3cnc[nH]3)n2)c1)N1CCCC1 [BX-912] (top concentration 10000 nM) | selective drug sensitivity score | 10.4 |
| CCN1C(=O)CNc2ncc(-c3ccc(-c4nc[nH]n4)nc3C)nc21 [CC-115] (top concentration 10000 nM) | selective drug sensitivity score | 4.14 |
| CCCCc1nc2cc(/C=C/C(=O)NO)ccc2n1CCN(CC)CC [Pracinostat] (top concentration 10000 nM) | selective drug sensitivity score | 7.68 |
| Cc1cc(F)c(C(=O)Nc2cccc(-c3nncn3C(C)C)n2)cc1-n1cnc(C2CC2)c1 [Selonsertib] (top concentration 1000 nM) | selective drug sensitivity score | 0.3 |
| CO[C@H]1C[C@@H]2CC[C@@H](C)[C@@](O)(O2)C(=O)C(=O)N2CCCC[C@H]2C(=O)O[C@H]([C@H](C)C[C@@H]2CC[C@@H](OC(=O)C(C)(CO)CO)[C@H](OC)C2)CC(=O)[C@H](C)/C=C(\C)[C@@H](O)[C@@H](OC)C(=O)[C@H](C)C[C@H](C)/C=C/C=C/C=C/1C [Temsirolimus] (top concentration 100 nM) | selective drug sensitivity score | 14.9 |

---

# Test system: COG-LL-332h
# measurement_protocol: selective drug sensitivity score (sDSS, relative to normal bone marrow) (sDSS (score)); higher = more potent and effective on the cell line relative to normal bone marrow cells
# measurement_conditions: 72 h
// label = criterion met if selective drug sensitivity score is not less than 0.2, otherwise criterion not met

| compound | qualitative_label |
| --- | --- |
| CCN(CC)CCN(Cc1ccc(-c2ccc(C(F)(F)F)cc2)cc1)C(=O)Cn1c(SCc2ccc(F)cc2)nc(=O)c2c1CCC2 [Darapladib] (top concentration 1000 nM) | criterion not met |
| CCc1cc2c(cc1N1CCC(N3CCOCC3)CC1)C(C)(C)c1[nH]c3cc(C#N)ccc3c1C2=O [Alectinib] (top concentration 1000 nM) | criterion not met |
| CCn1c(C(=O)N(C2CC2)C2CC2)cc2c3c(ncn3C)c(Nc3cc(C)n(C)n3)nc21 (top concentration 10000 nM) | criterion not met |
| Nc1cccc2c1CN(C1CCC(=O)NC1=O)C2=O (stereo unspecified) [Lenalidomide] (top concentration 100000 nM) | criterion met |
| Cc1cc(F)c(C(=O)Nc2cccc(-c3nncn3C(C)C)n2)cc1-n1cnc(C2CC2)c1 [Selonsertib] (top concentration 1000 nM) | criterion not met |
| Nc1ccn([C@@H]2O[C@H](CO)[C@@H](O)[C@@H]2O)c(=O)n1 [Cytarabine] (top concentration 10000 nM) | criterion met |
